- Test system: Saccharomyces cerevisiae;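 also: PSI is a weighted mean of sequencing reads over stability bins, variants kept only with over 10 reads, mCherry proximal and sfGFP distal, peptide attached via GGGS linker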
- test.summary: protein stability index of tFT-peptide fusion (C-terminal peptide) (PSI (0-1 scale)); higher = more stable (slower turnover)
- study.conditions: genetic background: das1 deletion; temperature: 30 C
Consider the following sequences and their measured protein stability index readings.
Write no unit; give the number alone.

Record excerpt, results attached:
GNIHHTRFLALL	0.747
VFSVSVLFLFFH	0.282
GVSRRWFSLRCI	0.612
GSVGFICCVVVV	0.332
WSNICFWCGVWS	0.673
FLFLSPLALHVS	0.412

Suppose we examine the sequence RLLRGDRMVICS ; what protein stability index value has been reported?
0.395

So what's the measured protein stability index for this one? DHSWGGLLICTC
0.343

What does the record list as protein stability index for RYLCLTPALYLS ?
0.509
